assay: Metabolic stability in human liver microsomes; type: in vitro ADME; conditions: LM Clint; 1 μM test compound, 0.5 mg protein/mL microsome, 37° C., up to 60 min;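 also: NADPH-supplemented human liver microsomes sampled at 0, 5, 10, 20, 30 and 60 min, parent compound quantified by LC-MS/MS, intrinsic clearance from first-order decay, no-cofactor incubation as control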
readout: Human Liver Microsome (μM/min/mg)

CC(C)n1cnc(-c2ccc(C(F)(F)F)cc2)c1-c1nc(C(=O)Nc2ccc(N3CCN(C)CC3)cc2)c[nH]1: + (>100 μM/min/mg as +)
CC(C)n1cnc(-c2ccc(F)cc2)c1-c1cccc(C(=O)Nc2ccc(N3CCN(C)CC3)cc2)n1: + (>100 μM/min/mg as +)

---

target: MAP4K4 (h) (Homo sapiens (Human));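 also: kinase activity remaining relative to the DMSO control, IC50 derived from sigmoidal variable-slope curve fits, no preincubation of compound with enzyme before ATP start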
Sequence (O95819 whole entry): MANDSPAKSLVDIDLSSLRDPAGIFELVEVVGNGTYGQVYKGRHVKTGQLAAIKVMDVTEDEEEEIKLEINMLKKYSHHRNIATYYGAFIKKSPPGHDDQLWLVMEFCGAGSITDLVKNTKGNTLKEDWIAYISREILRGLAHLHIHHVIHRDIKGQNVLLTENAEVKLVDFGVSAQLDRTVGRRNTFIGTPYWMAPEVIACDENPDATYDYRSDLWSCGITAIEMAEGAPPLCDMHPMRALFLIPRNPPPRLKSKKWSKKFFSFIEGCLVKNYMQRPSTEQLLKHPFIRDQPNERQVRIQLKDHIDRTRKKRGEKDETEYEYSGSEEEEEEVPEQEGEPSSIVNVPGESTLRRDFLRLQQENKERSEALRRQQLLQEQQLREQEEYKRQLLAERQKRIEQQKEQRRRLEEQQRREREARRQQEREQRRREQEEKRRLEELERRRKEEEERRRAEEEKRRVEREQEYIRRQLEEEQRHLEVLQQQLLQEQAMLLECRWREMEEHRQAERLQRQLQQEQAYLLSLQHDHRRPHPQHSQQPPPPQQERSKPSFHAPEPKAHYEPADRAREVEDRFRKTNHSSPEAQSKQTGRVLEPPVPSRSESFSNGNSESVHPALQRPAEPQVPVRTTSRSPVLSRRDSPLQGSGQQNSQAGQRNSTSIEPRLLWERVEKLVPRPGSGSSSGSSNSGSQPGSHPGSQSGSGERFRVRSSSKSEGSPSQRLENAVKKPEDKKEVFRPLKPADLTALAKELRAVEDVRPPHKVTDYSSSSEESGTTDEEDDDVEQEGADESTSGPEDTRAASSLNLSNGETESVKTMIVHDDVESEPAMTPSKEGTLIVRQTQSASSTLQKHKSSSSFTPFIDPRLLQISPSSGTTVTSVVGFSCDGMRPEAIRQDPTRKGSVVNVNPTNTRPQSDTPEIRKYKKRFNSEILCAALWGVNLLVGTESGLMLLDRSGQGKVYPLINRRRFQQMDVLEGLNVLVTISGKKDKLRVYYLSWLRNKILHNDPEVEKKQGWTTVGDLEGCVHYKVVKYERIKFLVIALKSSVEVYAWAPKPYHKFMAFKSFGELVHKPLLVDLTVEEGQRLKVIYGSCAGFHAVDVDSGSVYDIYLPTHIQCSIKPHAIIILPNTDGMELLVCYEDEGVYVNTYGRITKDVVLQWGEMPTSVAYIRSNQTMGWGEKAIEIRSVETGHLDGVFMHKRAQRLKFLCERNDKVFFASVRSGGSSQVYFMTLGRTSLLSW
pIC50: −log10 of the molar value.
readout: pIC50

Below: 3 molecules and their reported pIC50.
CC(C)n1cnc(-c2ccc(F)cc2)c1-c1cccc(C(=O)Nc2ccc(N3CCN(C)CC3)cc2)n1 [Compound 127]: 7.92 to 9.00
CC(=O)N1CCN(c2ccc(NC(=O)c3c[nH]c(-c4c(-c5ccc(F)cc5)ncn4C(C)C)n3)cc2)CC1 [Compound 188]: 6.92 to 7.92
CC(C)n1cnc(-c2ccc(F)cc2)c1-c1nc(C(=O)Nc2ccc(CCO)cc2)c[nH]1 [Compound 111]: < 6.92

Note to self: pIC50 recorded for CC(C)n1cnc(-c2ccc(F)cc2)c1-c1ccc(C(=O)Nc2ccc(CCO)cc2)o1 [Compound 126] was 6.92 to 7.92

Note to self: pIC50 recorded for CN1CCN(c2ccc(NC(=O)c3c[nH]c(-c4c(-c5ccc(F)cc5)ncn4C(F)F)n3)cc2)CC1 [Compound 130] was < 6.92

Note to self: pIC50 recorded for CC(C)n1cnc(-c2ccc(F)cc2)c1-c1nc(C(=O)Nc2ccc(N3CCN(CC(F)(F)F)CC3)cc2)c[nH]1 [Compound 189] was 6.92 to 7.92

Note to self: pIC50 recorded for CC(C)n1cnc(-c2ccc(F)cc2)c1-c1nc(C(=O)Nc2ccc(N3CCN(CCO)CC3)cc2)c[nH]1 [Compound 117] was 6.92 to 7.92

---

biological target: UniProt Q9UKE5; experiment: TNIK Human STE Kinase Enzymatic Radiometric Assay; assay type: biochemical; details: ATP 70 μM; 40 min at room temperature; read-out: TNIK (IC50);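 also: remaining kinase activity relative to DMSO control, compound added without preincubation, reaction started with ATP, IC50 from variable-slope sigmoidal dose-response fit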
Sequence (Q9UKE5 whole entry): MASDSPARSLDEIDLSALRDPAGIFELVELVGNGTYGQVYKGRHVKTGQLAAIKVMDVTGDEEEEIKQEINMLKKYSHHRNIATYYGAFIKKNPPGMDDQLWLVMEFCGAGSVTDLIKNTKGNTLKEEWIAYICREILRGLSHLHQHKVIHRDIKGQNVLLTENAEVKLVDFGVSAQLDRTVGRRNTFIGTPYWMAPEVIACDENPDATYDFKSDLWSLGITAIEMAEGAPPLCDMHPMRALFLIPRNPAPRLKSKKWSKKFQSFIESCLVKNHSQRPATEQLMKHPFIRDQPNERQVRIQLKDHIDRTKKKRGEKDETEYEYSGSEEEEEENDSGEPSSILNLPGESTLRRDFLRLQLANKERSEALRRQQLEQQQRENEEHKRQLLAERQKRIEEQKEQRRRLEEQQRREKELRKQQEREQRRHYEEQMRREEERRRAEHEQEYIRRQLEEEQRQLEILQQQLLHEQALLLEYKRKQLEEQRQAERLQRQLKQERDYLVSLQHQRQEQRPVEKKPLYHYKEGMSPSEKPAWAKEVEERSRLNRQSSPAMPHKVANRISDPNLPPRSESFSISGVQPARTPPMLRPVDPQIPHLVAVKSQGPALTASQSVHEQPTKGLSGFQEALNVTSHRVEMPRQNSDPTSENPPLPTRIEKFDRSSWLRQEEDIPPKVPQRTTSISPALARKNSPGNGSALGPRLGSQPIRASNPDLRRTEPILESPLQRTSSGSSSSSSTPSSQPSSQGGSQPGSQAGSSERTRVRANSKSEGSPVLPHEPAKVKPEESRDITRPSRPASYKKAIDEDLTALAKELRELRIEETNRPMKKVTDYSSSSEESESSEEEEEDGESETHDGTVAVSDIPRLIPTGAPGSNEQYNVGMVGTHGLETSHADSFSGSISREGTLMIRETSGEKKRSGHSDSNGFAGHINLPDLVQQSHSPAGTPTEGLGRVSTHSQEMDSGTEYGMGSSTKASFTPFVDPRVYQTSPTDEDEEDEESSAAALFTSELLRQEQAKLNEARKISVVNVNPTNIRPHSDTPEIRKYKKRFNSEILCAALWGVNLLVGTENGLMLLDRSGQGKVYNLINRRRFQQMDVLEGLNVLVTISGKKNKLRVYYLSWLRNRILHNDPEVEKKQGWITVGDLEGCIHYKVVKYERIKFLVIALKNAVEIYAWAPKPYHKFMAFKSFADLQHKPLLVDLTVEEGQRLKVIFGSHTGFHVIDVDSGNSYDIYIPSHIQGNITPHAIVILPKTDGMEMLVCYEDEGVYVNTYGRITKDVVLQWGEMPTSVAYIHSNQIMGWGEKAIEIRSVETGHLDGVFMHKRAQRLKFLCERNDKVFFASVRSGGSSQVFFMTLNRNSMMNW
readout: IC50

CC(C)n1cnc(-c2ccc(F)cc2)c1-c1nc(C(=O)Nc2ccc(N3CCN(CCO)CC3)cc2)c[nH]1 [Compound 117]: 12 to 120 nM
CC(C)n1cnc(-c2ccc(C(F)(F)F)cc2)c1-c1nc(C(=O)Nc2ccc(N3CCN(C)CC3)cc2)c[nH]1 [Compound 142]: > 120 nM
CN1CCN(c2ccc(NC(=O)c3c[nH]c(-c4c(-c5ccc(F)cc5)ncn4C)n3)cc2)CC1 [Compound 119]: > 120 nM

Note to self: IC50 recorded for CC(C)n1cnc(-c2ccc(F)cc2)c1-c1ccc(C(=O)Nc2ccc(CCO)cc2)o1 [Compound 126] was 12 to 120 nM

Note to self: IC50 recorded for CC1CN(c2ccc(NC(=O)c3c[nH]c(-c4c(-c5ccc(F)cc5)ncn4CC(F)(F)F)n3)cc2)CC(C)N1C (stereo not shown) [Compound 190] was 1 to 12 nM

Note to self: IC50 recorded for O=C(Nc1ccc(N2CCNCC2)cc1)c1c[nH]c(-c2c(-c3ccc(F)cc3)ncn2CC(F)(F)F)n1 [Compound 167] was 12 to 120 nM

Note to self: IC50 recorded for CN1CCN(c2ccc(NC(=O)c3c[nH]c(-c4c(-c5ccc(F)cc5)ncn4CC(F)(F)F)n3)cc2)CC1=O [Compound 194] was 12 to 120 nM
